Tested on: human prostate PC3-mm2 tumor cell line
run_description: In vitro cell culture growth assay (MTS), PC3-mm2
Format: cell-based
measurement_setup: Homo sapiens, PC3MM2, 72 h, MTS cell growth assay, three days after drug treatment; read-out: IC50 PC3-mm2
measure_name: IC50 (nM)

CC(O)c1ccc(NC(=O)Nc2ccc(-c3nc(N4CCOCC4)nc(N4CCOCC4)n3)cc2)cc1 (centres unmarked): 49

P. O=C(Nc1ccc(-c2nc(N3CCOCC3)nc(N3CC4CCC(C3)O4)n2)cc1)Nc1cccnc1
Q. COCCOc1nc(-c2ccc(NC(=O)Nc3ccc(C(=O)OC)cc3)cc2)nc(N2CCOCC2)n1
Q: P or Q : whose IC50 is greater? Respond using the label that marks the chosen record.
Result: Q
(Q: 389 nM, P: 95 nM)

P. O=C(Nc1ccc(-c2nc(NC3CNC3)nc(N3CCOCC3)n2)cc1)Nc1cccnc1
Q. CC(C)NCCCc1nc(-c2ccc(NC(=O)Nc3ccncc3)cc2)nc(N2CCOCC2)n1
R. CN1CCN(CCCc2nc(-c3ccc(NC(=O)Nc4ccncc4)cc3)nc(N3CCOCC3)n2)CC1
Q: Ascending sort, IC50. Write the labels, ordered according to the request.
Result: R, Q, P
